- target.of.assay: T1, human Nectin-4 (Homo sapiens, UniProt Q96NY8)
- T1 sequence (Q96NY8 32-510): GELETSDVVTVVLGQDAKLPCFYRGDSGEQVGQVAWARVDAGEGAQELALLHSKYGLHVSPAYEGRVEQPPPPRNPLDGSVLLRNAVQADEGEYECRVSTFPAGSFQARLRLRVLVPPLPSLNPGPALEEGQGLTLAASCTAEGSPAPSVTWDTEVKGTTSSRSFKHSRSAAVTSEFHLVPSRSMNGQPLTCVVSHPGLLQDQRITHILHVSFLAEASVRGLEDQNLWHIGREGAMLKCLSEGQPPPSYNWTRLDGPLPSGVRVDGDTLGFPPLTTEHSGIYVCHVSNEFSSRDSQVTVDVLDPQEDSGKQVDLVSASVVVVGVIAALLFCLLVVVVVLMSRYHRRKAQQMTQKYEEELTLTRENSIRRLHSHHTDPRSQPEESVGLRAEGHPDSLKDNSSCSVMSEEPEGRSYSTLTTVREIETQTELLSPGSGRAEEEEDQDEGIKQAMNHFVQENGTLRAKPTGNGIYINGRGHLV
- assay.notes: Binding to human Nectin-4 by SPR
- measurement.conditions: SPR dissociation constant; second set (Table 7)

molecule	unit.string	kd
H0L0 (antibody, human IgG1, V domains shown, human IgG1 isotype; also called HOLO; humanized 5E7 variant H0L0) VH: QVQLVQSGAEVKKPGASVKVSCKASGYTFTSYWMHWVRQAPGQGLEWMGEIDPSDSYTNYNQKFKGRVTMTRDTSTSTVYMELSSLRSEDTAVYYCARGYGNYGDYWGQGTLVTVSS VL: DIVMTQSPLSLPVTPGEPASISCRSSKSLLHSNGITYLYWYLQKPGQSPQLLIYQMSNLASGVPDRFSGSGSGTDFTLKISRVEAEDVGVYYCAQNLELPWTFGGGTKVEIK	s⁻¹	0.014
H5L2 (antibody, human IgG1, V domains shown, human IgG1 isotype) VH: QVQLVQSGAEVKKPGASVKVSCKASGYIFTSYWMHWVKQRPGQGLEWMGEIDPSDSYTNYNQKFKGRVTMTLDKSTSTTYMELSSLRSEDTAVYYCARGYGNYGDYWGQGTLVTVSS VL: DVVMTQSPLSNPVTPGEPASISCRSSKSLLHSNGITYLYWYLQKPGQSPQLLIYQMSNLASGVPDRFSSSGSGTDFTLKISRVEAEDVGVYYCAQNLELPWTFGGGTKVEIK	s⁻¹	0.0053
H4L3 (antibody, human IgG1, V domains shown, human IgG1 isotype) VH: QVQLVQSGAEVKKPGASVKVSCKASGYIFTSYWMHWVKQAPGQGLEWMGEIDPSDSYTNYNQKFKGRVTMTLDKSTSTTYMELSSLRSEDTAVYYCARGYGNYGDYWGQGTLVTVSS VL: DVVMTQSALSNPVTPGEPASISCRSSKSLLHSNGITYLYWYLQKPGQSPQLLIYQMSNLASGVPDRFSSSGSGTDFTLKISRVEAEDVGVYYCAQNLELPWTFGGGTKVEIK	s⁻¹	0.0052
